Numbers sourced from patent US20090124819A1.

- tested-system: bovine thymus VDR (Bos taurus, UniProt Q28037)
- Construct: Bovine thymus VDR was purchased from Yamasa Biochemical; purchased Yamasa Biochemical (Choshi, Chiba Prefecture, Japan) lot; 112831; host or cells: bovine thymus
- Sequence (Q28037 1-426): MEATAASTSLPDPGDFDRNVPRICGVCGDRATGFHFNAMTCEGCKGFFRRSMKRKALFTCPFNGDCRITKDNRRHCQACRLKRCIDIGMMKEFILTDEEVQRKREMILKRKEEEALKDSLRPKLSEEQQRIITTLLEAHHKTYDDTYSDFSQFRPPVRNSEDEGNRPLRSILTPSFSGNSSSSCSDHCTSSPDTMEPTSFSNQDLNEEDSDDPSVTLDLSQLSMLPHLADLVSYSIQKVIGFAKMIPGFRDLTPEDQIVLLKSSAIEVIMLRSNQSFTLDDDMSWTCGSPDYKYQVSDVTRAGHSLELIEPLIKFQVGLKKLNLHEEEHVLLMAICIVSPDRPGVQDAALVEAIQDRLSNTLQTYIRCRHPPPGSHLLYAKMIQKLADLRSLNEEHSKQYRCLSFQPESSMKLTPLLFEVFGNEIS
- test-summary: Binding to bovine thymus vitamin D receptor (VDR), displacement of [3H]-1α,25-dihydroxyvitamin D3
- condition-info: X=(y/x)×100 from concentrations inhibiting 50% of [3H]-1α,25-dihydroxyvitamin D3 binding; 1α,25-dihydroxyvitamin D3 taken as 100
measurement-name: Binding potency (relative VDR-binding potency)

[1] C=C1/C(=C\C=C2/CCC[C@@]3(C)C2CCC3[C@H](C)CCCC(C)(C)O)C[C@H](O)C(C)(C)[C@@H]1O (stereo partly shown)
[2] C=C1C(=CC=C2CCCC3(C)C2CCC3C(C)CCCC(C)(C)O)CC(O)C(C)(C)C1O (stereo not shown)
[3] C=C1/C(=C\C=C2/CCC[C@@]3(C)C2CCC3[C@H](C)CCCC(C)(C)O)C[C@@H](O)C(C)(C)[C@@H]1O (stereo partly shown)
Arrange the 3 entries by Binding potency (relative VDR-binding potency) so the values rise. Please respond by ranking the labels in the order requested.
2, 1, 3
